In this section, each of the compounds is paired with its reported inhibition at 10 µM.
test system: MDA-MB-231 cells; assay: MTT antiproliferative assay, MDA-MB-231; assay type: cell-based, human; details: Homo sapiens, MDA-MB-231, 72 h, read-out: Inhibition (%) ± SEM

compound | inhibition at 10 µM
CCOP(=O)(OCC)c1c(OCc2cn(Cc3ccc(C(C)(C)C)cc3)nn2)ccc2c1CC[C@@H]1[C@@H]2CC[C@@]2(C)C(=O)CC[C@@H]12 [Compound 15b] | < 20%
C[C@@]12CC[C@@H]3c4cc(P(=O)(c5ccccc5)c5ccccc5)c(OCc5cn(Cc6ccccc6)nn5)cc4CC[C@H]3[C@@H]1CCC2=O [Compound 14a] | 82%
CCOP(=O)(OCC)c1cc2c(cc1OCc1cn(Cc3ccc(C(C)(C)C)cc3)nn1)CC[C@@H]1[C@@H]2CC[C@@]2(C)C(=O)CC[C@@H]12 [Compound 13b] | 57%

-- ask Name the recorded inhibition at 10 µM for CCOP(=O)(OCC)c1cc2c(cc1OCc1cn(Cc3ccccc3)nn1)CC[C@@H]1[C@@H]2CC[C@@]2(C)C(=O)CC[C@@H]12 [Compound 13a] .
-- reply < 20%

-- ask Please report the recorded inhibition at 10 µM for CC(C)(C)c1ccc(Cn2cc(COc3cc4c(cc3P(=O)(c3ccccc3)c3ccccc3)[C@H]3CC[C@@]5(C)C(=O)CC[C@H]5[C@@H]3CC4)nn2)cc1 [Compound 14b] .
-- reply 46.6%

-- ask // inhibition at 10 µM lookup, key: CCOP(=O)(OCC)c1c(OCc2cn(Cc3ccccc3)nn2)ccc2c1CC[C@@H]1[C@@H]2CC[C@@]2(C)C(=O)CC[C@@H]12 [Compound 15a]
-- reply 25.7%

Data origin, for the record: paper PMC7598997
